Molecular target: S100A4 (Homo sapiens, UniProt P26447)
Construct: made in house; host or cells: Escherichia coli BL21(DE3)
Sequence (P26447 whole entry): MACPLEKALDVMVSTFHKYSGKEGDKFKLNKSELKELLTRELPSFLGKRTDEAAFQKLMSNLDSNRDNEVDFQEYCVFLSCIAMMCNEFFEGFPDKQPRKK
Assay: Pull-down assay with immobilized protein and LSM libraries
Format: binding
Details: H14 probes
Protocol: Pull-down assays with immobilized test proteins and foldameric LSM libraries were carried out. Proteins were equilibrated with LSM probes, and equilibrium bound fractions (FB) were determined from the unbound fractions measured by HPLC-MS methods. Hits were corrected with background binding of the resin. […] MS data analysis. […] Using these processing setups, all raw data files were reprocessed together and analyzed. […]
Readout kind: Binding

• C[C@@H](O)[C@@H](CC(=O)N[C@H]1CCCC[C@@H]1C(=O)N[C@H]1CCCC[C@@H]1C(=O)N[C@H](CC(=O)N[C@H]1CCCC[C@@H]1C(N)=O)Cc1c[nH]c2ccccc12)NC(=O)[C@H]1CCCC[C@@H]1N [H14 TW] = does not
• N=C(N)NCCC[C@@H](CC(=O)N[C@H]1CCCC[C@@H]1C(N)=O)NC(=O)[C@H]1CCCC[C@@H]1NC(=O)[C@H]1CCCC[C@@H]1NC(=O)C[C@H](CCCNC(=N)N)NC(=O)[C@H]1CCCC[C@@H]1N [H14 RR] = does not
• CC[C@H](C)[C@@H](CC(=O)N[C@H]1CCCC[C@@H]1C(N)=O)NC(=O)[C@H]1CCCC[C@@H]1NC(=O)[C@H]1CCCC[C@@H]1NC(=O)C[C@@H](NC(=O)[C@H]1CCCC[C@@H]1N)[C@@H](C)O [H14 TI] = binds
• CSCC[C@@H](CC(=O)N[C@H]1CCCC[C@@H]1C(N)=O)NC(=O)[C@H]1CCCC[C@@H]1NC(=O)[C@H]1CCCC[C@@H]1NC(=O)C[C@@H](NC(=O)[C@H]1CCCC[C@@H]1N)[C@@H](C)O [H14 TM] = binds
